Origin of measurements: ChEMBL document CHEMBL1134256

Could you please report measured pIC50 for the items listed next?
# Test system: BT-20
# assay_comment: Effect on proliferation of human breast cancer cell line BT-20 by MTT assay method
# Assay type: functional, cell-based
Interpret pIC50 as the negative base-10 log of the concentration measured in mol/L.

Summary for this compound, C#CC[C@H](/C=C/C(C)=C/[C@@H](O)[C@H]1C[C@@H](OC)C[C@@](O)(Cc2nc(/C=C(\C)[C@@H]3O[C@@H]4C/C=C/c5nc(co5)[C@H]5C[C@H](O)C[C@@H](C[C@H]6CC(=C)C[C@H](C/C=C\C(=O)O[C@@H]([C@H]4C)[C@H]3C)O6)O5)co2)O1)OC : pIC50 is 7.90

Summary for this compound, C=C1C[C@@H]2C[C@@H]3C[C@@H](O)C[C@@H](O3)c3coc(n3)/C=C/C[C@H]3O[C@@H](/C(C)=C/c4coc(C[C@]5(O)C[C@H](OC)C[C@H]([C@H](O)/C=C(C)/C=C/[C@@H](C/C=C/Br)OC)O5)n4)[C@H](C)[C@@H](OC(=O)/C=C\C[C@@H](C1)O2)[C@H]3C : pIC50 is 8.47

Summary for this compound, C=C1C[C@@H]2C[C@@H]3C[C@@H](O)C[C@@H](O3)c3coc(n3)/C=C/C[C@H]3O[C@@H](/C(C)=C/c4coc(C[C@]5(OC)C[C@H](OC)C[C@H]([C@H](O)/C=C(C)/C=C/[C@@H](C/C=C/Br)OC)O5)n4)[C@H](C)[C@@H](OC(=O)/C=C\C[C@@H](C1)O2)[C@H]3C : pIC50 is 7.95
